# ASSAY_METHOD_TEXT: qHTS assay to identify inhibitors of the type 1 interferon - major histocompatibility complex class I in skeletal muscle: Counter screen cell viability and HiBit confirmation (AID 1347412); further: potency means the concentration at half of the fitted maximal effect; nearly all actives have a fitted effect of over 60% in size
# CONDITION_PARAMETERS: iHSKM muscle cells + IFN-b, HiBiT or CellTiter-Glo, 24 h; HiBiT
Records with an inconclusive call do not appear. Active and inactive are the calls of the source. The call rests on the fitted dose curve; in most records, active means well fitted inhibition curve with a large enough effect; inconclusive means small, poorly fitted or top-dose-only effect; inactive means no such curve, though single readings can be large or run the other way.
Task for the reader: assign each of the following compounds its reported Potency.

{"COMPOUND": "CNC(=O)c1ccccc1Nc1nc(Nc2ccc(N3CCOCC3)cc2OC)ncc1Cl", "MEASURED_ENDPOINT": "Potency", "ASSAY_VALUE": "1.4 µM (active)"}
{"COMPOUND": "OCCCNc1cc(-c2ccnc(Nc3cccc(Cl)c3)n2)ccn1", "MEASURED_ENDPOINT": "Potency", "ASSAY_VALUE": "0.125 µM (active)"}
{"COMPOUND": "COc1cc2c(Oc3ccc4[nH]c(C)cc4c3F)ncnc2cc1OCCCN1CCCC1", "MEASURED_ENDPOINT": "Potency", "ASSAY_VALUE": "19.8 µM (active)"}
{"COMPOUND": "CCOC(=O)C1=C(C)NC2=C(C(=O)CC(C)(C)C2)C1c1ccc(-c2ccccc2)cc1 (stereo unspecified)", "MEASURED_ENDPOINT": "Potency", "ASSAY_VALUE": "2.49 µM (active)"}
{"COMPOUND": "Cc1cc(Nc2cc(NC(=O)c3c(Cl)cccc3Cl)ccn2)nc(N)n1", "MEASURED_ENDPOINT": "Potency", "ASSAY_VALUE": "2.79 µM (active)"}
{"COMPOUND": "Cc1ccc(C(=O)Nc2ccc(CN3CCN(C)CC3)c(C(F)(F)F)c2)cc1C#Cc1cnc2cccnn12", "MEASURED_ENDPOINT": "Potency", "ASSAY_VALUE": "6.25 µM (active)"}
{"COMPOUND": "O=C(c1ccc(Nc2nccc(-c3cc4ccccc4s3)n2)cc1)N1CCC(N2CCCC2)CC1", "MEASURED_ENDPOINT": "Potency", "ASSAY_VALUE": "17.6 µM (active)"}
{"COMPOUND": "Cc1ccc(-c2ncn(-c3ccc(Nc4nccc(-c5cccc(N6CCOCC6)c5)n4)cc3)n2)cn1", "MEASURED_ENDPOINT": "Potency", "ASSAY_VALUE": "2.49 µM (active)"}

# batch size: 4; output Potency per entry
1. CC(C)(C)c1cnc(CSc2cnc(NC(=O)C3CCNCC3)s2)o1
2. CNC(=O)c1cc(Oc2ccc(NC(=O)Nc3cc(C(C)(C)C)nn3-c3ccc4ncccc4c3)c(F)c2)ccn1
3. Cc1nc(Nc2n[nH]c3c2CN(C(=O)N[C@H](CN(C)C)c2ccccc2)C3(C)C)c2sccc2n1
4. CC[C@@H]1C(=O)N(C)c2cnc(Nc3ccc(C(=O)NC4CCC(N5CCN(CC6CC6)CC5)CC4)cc3OC)nc2N1C(C)C (stereo partly specified)

Result string:
["0.351 µM (active)", "3.94 µM (active)", "0.0625 µM (active)", "6.25 µM (active)"]

# batch size: 4; output Potency per entry
1. CC(C)c1cc(-c2n[nH]c(=O)n2-c2ccc3c(ccn3C)c2)c(O)cc1O
2. CN1CCN(Cc2ccc(NC(=O)Nc3ccc(Oc4cc(NC(=O)C5CC5)ncn4)cc3)cc2C(F)(F)F)CC1
3. CC(C)CC(=O)Nc1n[nH]c2c1CN(C(=O)C1CCN(C)CC1)C2(C)C
4. COc1ccc(F)c(F)c1C(=O)c1cnc(NC2CCN(S(C)(=O)=O)CC2)nc1N

Result string:
1. 0.0176 µM (active)
2. 0.442 µM (active)
3. 0.701 µM (active)
4. 1.11 µM (active)

# batch size: 2; output Potency per entry
1. CCS(=O)(=O)c1cccc(-c2cc(C(=O)NC3CCN(C)CC3)c(C)c3[nH]c4ncc(C)cc4c23)c1
2. C=CC(=O)Nc1cccc(Oc2nc(Nc3ccc(N4CCN(C)CC4)cc3)ncc2Cl)c1

Result string:
2.79 µM (active)
22.2 µM (active)

# batch size: 6; output Potency per entry
1. COc1cccc2nc(-c3cccs3)nc(NN3C(=O)C=C(C)C3=O)c12
2. C[C@@]12O[C@@H](C[C@]1(O)CO)n1c3ccccc3c3c4c(c5c6ccccc6n2c5c31)CNC4=O
3. Nc1ncnc2c1c(-c1cccc(OCc3ccccc3)c1)cn2C1CC(CN2CCCC2)C1 (stereo unspecified)
4. Cc1cc(Nc2nc(N[C@@H](C)c3ccc(F)cc3)c(C#N)cc2F)n[nH]1
5. Nc1ccccc1NC(=O)c1ccc(CNc2nccc(-c3cccnc3)n2)cc1
6. C#Cc1cccc(Nc2ncnc3cc(OC)c(OCCCCCCC(=O)NO)cc23)c1

Result string:
2.79 µM (active)
0.701 µM (active)
22.2 µM (active)
2.22 µM (active)
3.94 µM (active)
2.49 µM (active)

# batch size: 2; output Potency per entry
1. CC(C)c1nn(-c2c(Cl)cccc2Cl)c2nc(Cc3ccc(OCCO)cc3)[nH]c(=O)c12
2. COc1cccc2c(NCc3ccccc3)nc(-n3c(N)nc4ccccc43)nc12

Result string:
["0.0352 µM (active)", "12.5 µM (active)"]
